# Tested on: TrkB
# assay-info: TrkB phosphorylation assay: potentiation of BDNF-induced TrkB phosphorylation in cortical neurons
# Type: cell-based
# condition-info: potentation at a PAM concentration of 10 nM of 0.4 nM BDNF-induced TrkB phosphorylation in cortical neurons
readout: PAM TrkB activity

Known results for molecules:
• O=C(CCc1nnc2ccc(N3CCC(N4CCCCC4)CC3)nn12)NC1CCN(Cc2ccccc2)CC1 [LIT-TB003] = ++ (++: 20-35%)
• O=C(CCc1nnc2ccc(N3CCN(Cc4ccccc4)CC3)nn12)NC1CCN(Cc2ccccc2)CC1 [LIT-TB005] = +++ (+++: >35%)
• CN1CCN(c2ccc3nnc(CCC(=O)NC4CCN(Cc5ccncc5)CC4)n3n2)CC1 [LIT-TB025] = + (+: <20%)
• CN1CCN(c2ccc3nnc(CCC(=O)NC4CCN(Cc5ccccc5F)CC4)n3n2)CC1 [LIT-TB022] = +++ (+++: >35%)
• COc1ccc(CN2CCC(NC(=O)CCc3nnc4ccc(N5CCN(C)CC5)nn34)CC2)c(C)c1.Cl.Cl [LIT-TB045] = +++ (+++: >35%)
• CN1CCN(c2ccc3nnc(CCC(=O)NC4CCN(CC5CCCCC5)CC4)n3n2)CC1 [LIT-TB031] = +++ (+++: >35%)
• O=C(CCc1nnc2ccc(N3CCN(c4ncccn4)CC3)nn12)NC1CCN(Cc2ccccc2)CC1 [LIT-TB004] = + (+: <20%)
• CN1CCN(c2ccc3ncc(CCC(=O)NC4CCN(Cc5ccccc5)CC4)n3c2)CC1 [LIT-TB013] = +++ (+++: >35%)

Given item CN1CCC(NC(=O)CCc2nnc3ccc(N4CCN(C)CC4)nn23)CC1 [LIT-TB016] , the value recorded as its PAM TrkB activity is +++ (+++: >35%)

Input O=C(CCc1nnc2ccc(N3CCCCC3)nn12)NC1CCN(Cc2ccccc2)CC1 [LIT-TB002] . Output PAM TrkB activity: ++ (++: 20-35%)

// sample CN1CCN(c2ccc3nnc(CCC(=O)NC4CCN(c5ccccc5)CC4)n3n2)CC1 [LIT-TB035] , its PAM TrkB activity was ++ (++: 20-35%)

Summary for this molecule, CN1CCN(c2ccc3nnc(CCCNC4CCN(Cc5ccccc5)CC4)n3n2)CC1 [LIT-TB015] : PAM TrkB activity is +++ (+++: >35%)

So for CN1CCN(c2ccc3nnc(CCC(=O)NC4CCN(Cc5ccc(F)cc5F)CC4)n3n2)CC1 [LIT-TB040] , the logged PAM TrkB activity turned out to be ++ (++: 20-35%)

Sample CN1CCN(c2ccc3nnc(CCC(=O)NC4CCN(Cc5cccc(Cl)c5)CC4)n3n2)CC1 [LIT-TB018] ; PAM TrkB activity observed: +++ (+++: >35%)

====

# Test system: TrkB
# assay-info: TrkB phosphorylation assay: potentiation of BDNF-induced TrkB phosphorylation in cortical neurons
# Type: cell-based
# condition-info: potentation at a PAM concentration of 10 nM of 0.4 nM BDNF-induced TrkB phosphorylation in cortical neurons
readout: PAM TrkB activity

As a guide, the following entries are already answered.
- CN1CCN(c2ccc3nnc(CCC(=O)NC4CCN(Cc5ccccc5)C(=O)C4)n3n2)CC1 (centres unmarked): + (+: <20%)
- CN1CCN(c2ccc3nnc(CCC(=O)NC4CCN(Cc5ccccc5)CC4)n3n2)CC1: +++ (+++: >35%)
- CN1CCN(c2ccc3nnc(CCC(=O)N[C@H]4CCN(Cc5ccccc5)C[C@@H]4F)n3n2)CC1: +++ (+++: >35%)
- CN1CCN(c2ccc3nnc(CCC(=O)NC4CCNCC4)n3n2)CC1: + (+: <20%)
- CN1CCN(c2ccc3nnc(CCC(=O)N[C@@H]4CCN(Cc5ccccc5)C[C@@H]4F)n3n2)CC1: ++ (++: 20-35%)

Entry CN1CCN(c2ccc3nnc(CCC(=O)N[C@@H]4CCN(Cc5ccccc5)C[C@H]4F)n3n2)CC1 — recorded PAM TrkB activity = +++ (+++: >35%)

====

# Test system: TrkB
# assay-info: TrkB phosphorylation assay: potentiation of BDNF-induced TrkB phosphorylation in cortical neurons
# Type: cell-based
# condition-info: potentation at a PAM concentration of 10 nM of 0.4 nM BDNF-induced TrkB phosphorylation in cortical neurons
readout: PAM TrkB activity

• CN1CCN(c2ccc3nnc(CCC(=O)NC4CCN(C(=O)c5ccccc5)CC4)n3n2)CC1.Cl [LIT-TB027] = + (+: <20%)
• CN1CCN(c2ccc3nnc(CCC(=O)NC4CCN(Cc5ccc(Cl)cc5)CC4)n3n2)CC1 [LIT-TB028] = + (+: <20%)
• CN1CCN(c2ccc3nnc(CCC(=O)NC4CCN(Cc5ccc(Cl)c(Cl)c5)CC4)n3n2)CC1 [LIT-TB026] = + (+: <20%)
• CC(c1ccccc1)N1CCC(NC(=O)CCc2nnc3ccc(N4CCN(C)CC4)nn23)CC1 (centres unmarked) [LIT-TB023] = + (+: <20%)

====

# System: TrkB
# assay-info: TrkB phosphorylation assay: potentiation of BDNF-induced TrkB phosphorylation in cortical neurons
# Type: cell-based
# condition-info: potentation at a PAM concentration of 10 nM of 0.4 nM BDNF-induced TrkB phosphorylation in cortical neurons
readout: PAM TrkB activity

Example entries and their recorded answers appear below.
* Cc1ccccc1CN1CCC(NC(=O)CCc2nnc3ccc(N4CCN(C)CC4)nn23)CC1 | +++ (+++: >35%)
* COc1ccc(CN2CCC(NC(=O)CCc3nnc4ccc(N5CCN(C)CC5)nn34)CC2)cc1 | +++ (+++: >35%)
* COc1ccc(CN2CC[C@H](NC(=O)CCc3nnc4ccc(N5CCN(C)CC5)nn34)[C@@H](F)C2)cc1 | +++ (+++: >35%)
* CN1CCN(c2ccc3ncc(CCC(=O)NC4CCN(Cc5ccccc5)CC4)n3n2)CC1 | ++ (++: 20-35%)
* COc1ccc(CN2CCC(NC(=O)CCc3nnc4ccc(N5CCN(C)CC5)nn34)CC2)c(F)c1.Cl.Cl | + (+: <20%)

Looking up CN1CCN(c2ccc3nnc(CCC(=O)NC4CCN(Cc5ccccc5)CC4)n3c2)CC1 , I see its PAM TrkB activity listed as +++ (+++: >35%)

Quick note, PAM TrkB activity for CN1CCN(c2ccc3nnc(CCC(=O)NC4CCC(Cc5ccccc5)CC4)n3n2)CC1 (centres unmarked) landed at + (+: <20%)

What the record says about Cc1[nH]cnc1CN1CCC(NC(=O)CCc2nnc3ccc(N4CCN(C)CC4)nn23)CC1 : PAM TrkB activity is +++ (+++: >35%)

Looking up CN1CCN(c2ccc3nnc(CCC(=O)NC4CCN(Cc5ccc(F)cc5)CC4)n3n2)CC1 , I see its PAM TrkB activity listed as +++ (+++: >35%)

Record Cc1cc(F)ccc1CN1CCC(NC(=O)CCc2nnc3ccc(N4CCN(C)CC4)nn23)CC1 . Reported PAM TrkB activity: ++ (++: 20-35%)

Kindly note the recorded PAM TrkB activity for CN1CCN(c2ccc3nnc(CCC(=O)NC4CCN(Cc5ccccc5Cl)CC4)n3n2)CC1 , which is +++ (+++: >35%)
